Data provenance: the supplement of paper PMC9170038

Test system: K4 kissing-loop RNA reporter;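 further: bound reporter read as fluorescence of individual clusters on recovered sequencing chips by microscopy, with normalized cluster intensities fitted with a binding model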
Assay: apparent KD of K4 kissing-loop reporter; higher = weaker reporter binding
Conditions: Eterna round: R107; input ligand: FMN 200 uM
metric: apparent KD of K4 kissing-loop reporter (nM)

>>> value_reported("AGAACUGUCUUGGAUACCAGUGAUGUUGGUAUCGAUGUGUGAGUGCAAAGCGUCCCAGAGUGCCCUUGGCAGCUAAGACUGUUCA [#16 K4 Theophylline B Exclusion]")
277
>>> value_reported("AUGCGCAGCCUGCUUACGUAUGAGCCGGAAGGAGCGGCAGAAUUGCCAGGUAGGUCGCCGGCCCAGUGAUGUUGGGAUGGUGUGG [Atusqubela]")
279
>>> value_reported("CGCAGUGAUGUUGCUAUUAUUCUUGGUUAACGAGGACCGGUACGGCCGCCACUCGAUUUCUGUCUAGUCCAGUGUUUUUUUGAGU [whbob_EX_Tryp_A_t7]")
363
>>> value_reported("UUUGGAGAGGGAAGGAGCGUGAAAGAGAAAGAAUAUAGUGAUGUUAUAUAGAAGAAAGAAUCACAGGUAGGUCGCCCGGAGGAGG [SSArgB.D]")
707
>>> value_reported("UCAGUGAUGUUGAACAAAUAAUGGUUCCUAAAGGAUAUCCACAGAUGGAGAAGGUUAGUAGCGGCUCGCACAUCGUAGGACAAAU [theeternabot_exclusion_KL_FMN_A_1]")
767
>>> value_reported("AUGUCUUAUAAACUCGUGGUUUCGAUCGAUACCAGUAGCGAGAGUUACCCUUGGCAGCGACAUGAGUGAUGUUCAUGUACGAAGA [KL-XTheoA4]")
96.1
>>> value_reported("CGCCGGAAGGCGGUCGCUCCCACUCCGGAAGGAGCGCCCGGAAGGGCAGGUAGGUCGCCGGAGUGAUGUUCCGGUGGAGGGACCG [#2 Exclusion - Arginine A Attempt #10 (Inspired by Omei)]")
230
>>> value_reported("GCUAUGGUAGGAAGGAGCGCGGACGAAAUUUAUCGAGUGAUGUUCGAAUAAUUAAAUAAAACGCAGGUAGGUCGCCUACUAUAGC [Arginine B K4 26]")
101
